All figures here come from a melting point compilation (Tetko et al.).

Provide the recorded melting point for the entries that follow.

### Prompt Read off the recorded melting point for S=C1NCCCCN1
### Response 178 to 180 °C

### Prompt Read off the recorded melting point for CC(C)(C)c1cc(C#N)cc(C(C)(C)C)c1O
### Response 144 to 146 °C

### Prompt Read off the recorded melting point for O=C(O)CCc1ccc(Cl)c(Cl)c1
### Response 97 to 99 °C

### Prompt Read off the recorded melting point for O=C(O)c1cc([N+](=O)[O-])c(Cl)c([N+](=O)[O-])c1Cl
### Response 210 to 215 °C

### Prompt Read off the recorded melting point for Cc1[nH]c2ccccc2c1C=O
### Response 204 to 205 °C

### Prompt Read off the recorded melting point for NC(=O)c1cc(Cl)cc(Cl)c1
### Response 160 to 162 °C

### Prompt Read off the recorded melting point for CCN(C(=S)Cl)c1ccccc1
### Response 56 to 58 °C

### Prompt Read off the recorded melting point for CCOC(=O)c1c(C=O)c(C)n(-c2ccccc2)c1C
### Response 78 to 81 °C

### Prompt Read off the recorded melting point for COc1ccc(CCN2CCc3c([nH]c4ccccc34)C2=O)cc1OC
### Response 206 to 207 °C

### Prompt Read off the recorded melting point for NC(=S)c1ccccc1F
### Response 80 to 84 °C

### Prompt Read off the recorded melting point for CC(=O)OC1OC(COC(=O)c2ccccc2)C(OC(=O)c2ccccc2)C1OC(=O)c1ccccc1 (stereo unspecified)
### Response 128 to 130 °C

### Prompt Read off the recorded melting point for C/C(CCc1oc2ccc([N+](=O)[O-])cc2c1-c1ccc(C)o1)=N/O
### Response 160 to 161 °C

### Prompt Read off the recorded melting point for O=C(Nc1ccccc1Br)C(C(F)(F)F)C(F)(F)F
### Response 183 to 185 °C

### Prompt Read off the recorded melting point for CC(C)C1COC2(C)C=CC(=O)N12 (stereo unspecified)
### Response 46 to 50 °C

### Prompt Read off the recorded melting point for O=C1CCCC(Cl)(Cl)C1(O)O
### Response 120 to 124 °C

### Prompt Read off the recorded melting point for O=C(O)/C=C/c1cccc2c(Br)cccc12
### Response 269 to 270 °C

---

Provide the recorded melting point for the entries that follow.

### Prompt Read off the recorded melting point for OCc1csc2ccc(Br)cc12
### Response 79 to 81 °C

### Prompt Read off the recorded melting point for Cc1cc(N2CCNCC2)c2ccccc2n1
### Response 101 to 103 °C

### Prompt Read off the recorded melting point for COC1=C(OC)/C(=C/C=O)OC1=O
### Response 60 to 62 °C

### Prompt Read off the recorded melting point for Cc1cc(Br)cnc1N
### Response 92 to 94 °C

### Prompt Read off the recorded melting point for C1CCCC2OC2CC1 (stereo not drawn)
### Response 53 to 56 °C

### Prompt Read off the recorded melting point for Cn1cc(Br)c(C(=O)O)n1
### Response 211 to 213 °C

### Prompt Read off the recorded melting point for CC[C@H](C)[C@H](NC(=O)OCc1ccccc1)C(=O)O
### Response 52 to 54 °C

### Prompt Read off the recorded melting point for O=Cc1nc2ccccc2c2ncccc12
### Response 144 to 145 °C

### Prompt Read off the recorded melting point for c1ccc(C2=C(c3ccccc3)NC(c3ccncc3)N2)cc1
### Response 255 to 265 °C

### Prompt Read off the recorded melting point for COP(=S)(OC)SCN1C(=O)c2ccccc2C1=O
### Response 72 °C

### Prompt Read off the recorded melting point for N#CCC(=O)N1CCCCC1
### Response 88 °C

### Prompt Read off the recorded melting point for CC(C)(C)C(O)C(Cc1ccc(Cl)cc1Cl)n1cncn1 (stereo not drawn)
### Response 148 °C

### Prompt Read off the recorded melting point for CC(=O)OCC(=O)C1(OC(C)=O)CCC2(C)C(CCC3C4CCC(=O)C4(C)CCC32)C1 (stereo not drawn)
### Response 141 °C

### Prompt Read off the recorded melting point for Nc1ccc(C2SCCS2)cc1
### Response 57 to 59 °C

### Prompt Read off the recorded melting point for OCc1cccc(-c2cccs2)c1
### Response 46 to 49 °C

### Prompt Read off the recorded melting point for CC(C)[C@H](N)P(=O)(O)O
### Response 270 °C

### Prompt Read off the recorded melting point for O=C(O)CCNC(=O)CCl
### Response 91 to 92 °C

### Prompt Read off the recorded melting point for CCOC(=O)c1sc2nc(C)cc(C)c2c1N
### Response 157 to 158 °C
